Test system: Vero E6 infected with SARS-CoV-2
Experiment: inhibition of SARS-CoV-2 cytopathic effect; higher = more antiviral protection, active = above 15
Conditions: 10000 nM; 48 h
measure-name: inhibition of SARS-CoV-2 cytopathic effect (%)
Write the value in % as a bare number.

Consider the worked cases shown below.
{"compound": "CC(C)=CCC/C(C)=C/CC/C(C)=C/CSc1ccccc1C(N)=O [farnesyl-thiosalicylic-acid-amide]", "value-unit": "%", "value-reported": -2.46}
{"compound": "O=C(NC[C@H](O)CO)c1ccncc1Nc1ccc(I)cc1F", "value-unit": "%", "value-reported": -14.7}
{"compound": "CC(C)c1noc(N2CCC(COc3ccc(-c4ccc(S(C)(=O)=O)cc4)nc3)CC2)n1", "value-unit": "%", "value-reported": -0.23}

Consider the compound NC(=O)CC[C@H](N)C(=O)O and give its measured inhibition of SARS-CoV-2 cytopathic effect.
-2.64

Consider the compound CC[C@@H](C(N)=O)N1CCCC1=O and give its measured inhibition of SARS-CoV-2 cytopathic effect.
-0.05

Consider the compound OC[C@H]1O[C@@H](Oc2cc3c(O)cc(O)cc3[o+]c2-c2ccc(O)c(O)c2)[C@H](O)[C@@H](O)[C@@H]1O and give its measured inhibition of SARS-CoV-2 cytopathic effect.
-4.26

Consider the compound CCCC[P+](CCCC)(CCCC)Cc1ccc(NC(=O)[C@H](Cc2ccc3ccccc3c2)N/C(=N/C2CCCCC2)NC2CCCCC2)cc1 and give its measured inhibition of SARS-CoV-2 cytopathic effect.
-2.72

Consider the compound FC(F)(F)c1ccc(CNc2ccc(Cc3c[nH]c4ncccc34)cn2)cc1 and give its measured inhibition of SARS-CoV-2 cytopathic effect.
-1.01

Consider the compound O=C1c2cccnc2OC[C@@H]2CCCN12 and give its measured inhibition of SARS-CoV-2 cytopathic effect.
-2.21

---

Test system: Vero E6 infected with SARS-CoV-2
Assay: inhibition of SARS-CoV-2 cytopathic effect; higher = more antiviral protection, active = above 15
Conditions: 100 nM; 48 h
measure-name: inhibition of SARS-CoV-2 cytopathic effect (%)
Write the value in % as a bare number.

Look up inhibition of SARS-CoV-2 cytopathic effect with Vero E6 infected with SARS-CoV-2 for this compound: O=C(O)c1cc(/N=N/c2ccc(S(=O)(=O)Nc3ccccn3)cc2)ccc1O
-0.23

Look up inhibition of SARS-CoV-2 cytopathic effect with Vero E6 infected with SARS-CoV-2 for this compound: CCCc1c(OCCCOc2ccc(OCC(=O)O)cc2)ccc(C(C)=O)c1O
1.16

Look up inhibition of SARS-CoV-2 cytopathic effect with Vero E6 infected with SARS-CoV-2 for this compound: Cc1cc(SCc2sc(-c3ccc(C(F)(F)F)c(F)c3)nc2C)ccc1OCC(=O)O
-2.76

Look up inhibition of SARS-CoV-2 cytopathic effect with Vero E6 infected with SARS-CoV-2 for this compound: CN(C)/C=N/c1c(I)cc(I)c(CCC(=O)O)c1I
-0.76

Look up inhibition of SARS-CoV-2 cytopathic effect with Vero E6 infected with SARS-CoV-2 for this compound: CCc1cc(C(N)=S)ccn1 [ethionamide]
-0.38

Look up inhibition of SARS-CoV-2 cytopathic effect with Vero E6 infected with SARS-CoV-2 for this compound: CCO[C@@H](Cc1ccc(OCCc2ccc(OS(C)(=O)=O)cc2)cc1)C(=O)O
0.15

Look up inhibition of SARS-CoV-2 cytopathic effect with Vero E6 infected with SARS-CoV-2 for this compound: O=c1[nH]c(=O)n([C@H]2C[C@H](O)[C@@H](CO)O2)cc1C(F)(F)F
0.73
